test system: G. lamblia trophozoites (luciferase expressing, WBC6); test: microbe, parasite or virus in culture; format: cell-based, Giardia lamblia; settings: initial Pathogen Box screen, single concentration 16 µM, inhibition compared to DMSO wells
Response key: satisfied means Giardia (16 uM) Mean % inhibition >= 30%; not satisfied means Giardia (16 uM) Mean % inhibition < 30%.

CC(C)n1ncc2c(C(=O)NCC(c3cccs3)N3CCOCC3)cc(-c3ccccc3)nc21 (centres unmarked): satisfied
CCOc1ccc(OCC(=O)Nc2cc(C)cc(C)c2)cc1: not satisfied
NCC(c1cccs1)S(=O)(=O)c1ccccc1 (centres unmarked): not satisfied
NC(N)=Nc1ccc(-c2ccc(-c3ccc(N=C(N)N)cc3Cl)o2)c(Cl)c1: not satisfied
Cc1ccc(S(=O)(=O)Nc2ccc(CN3CCN(C(=O)c4cccc(C#N)c4)CC3)cc2)cc1: satisfied

query: Is the recorded value of Giardia (16 uM) Mean % inhibition equal to or greater than 30% for this compound? CC(=O)Nc1ccc(-c2noc(CC3CCCN(Cc4cccc(F)c4C)C3)n2)cc1 (centres unmarked)
result: not satisfied

query: Further, for "O=C(Nc1ccccc1)c1ccc(-c2cc3ccncc3cc2OC2CCNCC2)s1" ?
result: satisfied

query: "COc1cccn2c(C(=O)N3CCCCC3)c(C(F)(F)F)nc12" ?
result: satisfied

query: And for "COc1cc(C2=NCCN2)ccc1-c1cn(-c2cccc(C3=NCCN3)c2)nn1" ?
result: satisfied

query: What about this compound? "COc1ccc2nc(C)cc(OCC(=O)Nc3ccccc3OC)c2c1"
result: not satisfied

query: Also, "CCCCc1ccc(NC(=O)Nc2ccc(O[C@H]3CCCC[C@@H]3N(C)c3ccccc3)c(F)c2)cc1" please.
result: not satisfied

query: Next compound up: "Cc1cc(C)n(-c2ccc(NC(=O)C3CCN(Cc4cnc(C)s4)CC3)cc2)n1"
result: not satisfied

query: // same read-out, input: "CCOC(=O)NC(=O)c1ccsc1NC(=O)c1nc2ccccc2s1"
result: not satisfied

====

Measured CC50 by item
Test system: HepG2 cells
Test: Cytotoxicity against HepG2 cells, AlamarBlue viability assay, 48 hours
Format: cell-based, human
Details: read-out: HepG2 CC50 (this study)
Method: Mammalian cell cytotoxicity assay data performed on HepG2 (human hepatocellular carcinoma) cells and described as CC20 or CC50 values are provided in supporting documentation that accompanied the Pathogen Box for approximately three quarters of the 400 compounds. […] Briefly, cells were exposed to two-fold serial dilutions of compounds for 48 hours and cytotoxicity was assessed using the AlamarBlue® viability assay (Thermo Fisher Scientific, Waltham, MA). […]

CC(C)(C)c1cnc(NC(=O)c2ccccc2O)s1: > 40 µM
O=[N+]([O-])c1cn2c(n1)OC[C@@H](OCc1ccc(OC(F)(F)F)cc1)C2: > 40 µM

query: Would you mind telling me what CC50 value was observed for "O=C(Nc1ccc(N2CCNCC2)cc1)c1ccn2ncc(-c3cccc(Cl)c3)c2n1" ?
result: > 40 µM

====

system: G. lamblia trophozoites (luciferase expressing, WBC6); test: microbe, parasite or virus in culture; assay type: cell-based, Giardia lamblia; conditions: initial Pathogen Box screen, single concentration 16 µM, inhibition compared to DMSO wells
measurement-type: Giardia (16 uM) Mean % inhibition (%)
Write down the numeric answer in % and omit the unit.

Here is how some compounds turned out for Giardia (16 uM) Mean % inhibition.
Nc1ncc(-c2ccc(C(F)(F)F)nc2)cc1-c1ccc(C(F)(F)F)nc1: 0.605
COc1ccc(-c2cc(NC(=O)c3ccc(F)cc3Cl)ccc2OC)cc1: 87
O=C(Nc1cnc2ccccc2c1)c1cccc(-n2cnnn2)c1: 63
COC(=O)c1ccc(F)cc1NS(=O)(=O)c1cccc(-c2cnn(Cc3ccccc3)c2)c1: -6
CN1CCCN(C(c2ccccc2)c2ccc(Cl)cc2)CC1 (centres unmarked): 27
OCCc1ccc(Nc2nccc(-c3nnc4ccccn34)n2)cc1: 99
CC(C)(C)OC(=O)N1CCN(c2nccc(-c3ccc(-c4ccc(Cl)cc4)s3)n2)CC1: 55
CC1CCCN(C(=O)C(C)Nc2cc(Cl)ccc2N2CCOCC2)C1 (centres unmarked): 62

query: # get_value(readout='Giardia (16 uM) Mean % inhibition', item= "COc1ccc(C2(C(=O)Nc3ccc(Br)cc3)CCCC2)cc1" )
result: 29

query: Okay, and "O=C(Nc1c(O)cccc1-c1nc2c(C(=O)O)cccc2o1)c1cc(-c2ccccc2)on1" ?
result: 41

query: Now consider "O=C(Nc1nnc(-c2ccc(Cl)s2)o1)c1ccc(Cl)s1" .
result: 78

query: Proceed to "N#Cc1nc(-c2ccccc2)oc1S(=O)(=O)c1ccc(Cl)cc1"
result: 49
